System: UO-31 renal
PROTOCOL NOTES: NCI-60 one-dose screen, 48 h
SETUP CONDITIONS: 10 µM unless noted
The panel holds about 83,000 compounds, 20% with a hit somewhere; the sample as a whole holds those more often. Active and inactive are the calls of the source. Rule for the calls: active = growth percent below 10; inactive = the rest.
Answer with one of the outcomes given here: active, inactive

GET /call?item= O=C1C(c2c[nH]c3ccccc23)=C(c2coc3cc(Br)ccc23)C(=O)N1O returns the recorded outcome of this test.
inactive

GET /call?item= [2H]C([2H])([2H])Oc1cccc(/C=C/C(=O)/C=C(/C=C/c2cccc(OC([2H])([2H])[2H])c2OC([2H])([2H])[2H])OB(F)F)c1OC([2H])([2H])[2H] returns the recorded outcome of this test.
inactive

GET /call?item= O=C(Nc1ccc2ncsc2c1)c1csc(Nc2ccc3[nH]ncc3c2)n1 returns the recorded outcome of this test.
inactive

GET /call?item= O=C(CCN1CCOCC1)Nc1cccc(-n2cc(-c3ccncc3)c(-c3ccc(Cl)c(O)c3)n2)c1 returns the recorded outcome of this test.
inactive

GET /call?item= Cn1cc(-c2nonc2-c2cn(C)c3ccc(Br)cc23)c2ccccc21 returns the recorded outcome of this test.
inactive

GET /call?item= O=C(NNc1ccccc1)c1ncc[nH]1 returns the recorded outcome of this test.
inactive

GET /call?item= O=C(Nc1ccc2ccccc2c1)c1cc2ccccc2cc1O returns the recorded outcome of this test.
inactive

GET /call?item= COc1cc(-c2nc(SCCC(C)C)nc(Nc3ccc(F)cc3)c2C#N)cc(OC)c1OC returns the recorded outcome of this test.
inactive

GET /call?item= N#Cc1c(-c2cccc(F)c2)cc(-c2cccnc2)[nH]c1=O returns the recorded outcome of this test.
inactive

GET /call?item= C=C(C)[C@@H]1CC[C@]2(C)[C@H](CC(=O)N[C@H]3[C@@H]4C[C@](C)(C(=O)OC)CC[C@]4(C)CC[C@]32C)[C@@]1(C)CCC#N returns the recorded outcome of this test.
inactive

GET /call?item= C#Cc1cc(C(=O)Nc2ccc(CN3CCN(C)CC3)c(C(F)(F)F)c2)ccc1C returns the recorded outcome of this test.
inactive

GET /call?item= O=C1Nc2ccccc2/C1=C/c1cccn1CCCCCn1c2ccccc2c(=O)c2ccccc21 returns the recorded outcome of this test.
inactive

GET /call?item= C=C1C(=O)O[C@@H]2[C@H]3[C@H](COC(C)=O)[C@@H](OC(C)=O)C[C@H]3C(=C)[C@@H](O)C[C@@H]12 returns the recorded outcome of this test.
inactive

GET /call?item= O=[N+]([O-])c1ccc2[nH]c3nccc(NCc4cccc(Cl)c4)c3c2c1 returns the recorded outcome of this test.
inactive

GET /call?item= Cc1nn(-c2nc(-c3cc4ccccc4oc3=O)cs2)c(C)c1N=Nc1ccccc1 returns the recorded outcome of this test.
inactive

GET /call?item= CCCN1C(=O)/C(=c2\sc3n(c2=O)C2C(NN=3)N(CC)C(=O)N2CC)c2ccccc21 (stereo not given) returns the recorded outcome of this test.
inactive

GET /call?item= O=S(=O)(Nc1ccc(F)cc1)c1ccc(-c2cnc(C3CC3)o2)cc1 returns the recorded outcome of this test.
inactive

GET /call?item= COc1ccc(/C=N\Nc2nc(SCC(C)C)nc(-c3ccc(OC)cc3)c2C#N)cc1 returns the recorded outcome of this test.
active

GET /call?item= COc1ccc(-c2cc(-c3cc(OC)c(OC)c(OC)c3)c(C#N)c(=O)n2CCCCC(=O)O)cc1 returns the recorded outcome of this test.
inactive

GET /call?item= COc1ccc2c(c1)c(-c1nc(-c3c[nH]c4c(Cl)nccc34)cs1)cn2C returns the recorded outcome of this test.
inactive

GET /call?item= OCCN1CCN(c2cc(-c3cccc(OC(F)(F)F)c3)nc3ccc(N4CCCC4)cc23)CC1 returns the recorded outcome of this test.
inactive

GET /call?item= Cc1c(CC(=O)OCCO)cc(-c2ccc(Cl)cc2)n1-c1ccccc1 returns the recorded outcome of this test.
inactive

GET /call?item= CCc1c2c(nc3ccc(OCc4ccc(B5OC(C)(C)C(C)(C)O5)cc4)cc13)-c1cc3c(c(=O)n1C2)COC(=O)[C@]3(O)CC returns the recorded outcome of this test.
active

GET /call?item= C#CCOc1cccc(Nc2ncc3ncn(C4CCN(C(=O)CCl)C4)c3n2)c1 (stereo not given) returns the recorded outcome of this test.
inactive

GET /call?item= CCOC(=O)c1nc2c3ccccc3cnn2c1C(=O)c1ccc(OC)cc1 returns the recorded outcome of this test.
inactive

GET /call?item= CC1(C)C(N)=Nc2cc(OCCCN3Cc4ccc(OCCc5cn(CC(=O)N6CCC(CCN7CCCC7)CC6)nn5)cc4C3)c(OCC3CC3)cc21 returns the recorded outcome of this test.
inactive

GET /call?item= CN1C(=O)N(C)C2(c3ccccc3)N(CC(=O)Nc3ccccc3O)C(=O)NC12c1ccccc1 (stereo not given) returns the recorded outcome of this test.
inactive

GET /call?item= O=C1c2cccc3cccc(c23)C(=O)N1N1C(=O)c2cccc3c(N4CCNCC4)ccc(c23)C1=O returns the recorded outcome of this test.
inactive

GET /call?item= CCCCCCCCN(CCCCCCCC)CC(O)c1cc(Cl)ccc1OC (stereo not given) returns the recorded outcome of this test.
inactive

GET /call?item= C=CCNC(=O)Cc1c(-c2ccc(OC)cc2)oc2c(OC)c3c(c(OC)c12)OCO3 returns the recorded outcome of this test.
inactive

----------
Test system: HOP-92 NSCLC
PROTOCOL NOTES: NCI-60 one-dose screen, 48 h
SETUP CONDITIONS: 10 µM unless noted
The panel holds about 83,000 compounds, 20% with a hit somewhere; the sample as a whole holds those more often. The source made the active and inactive calls. Rule for the calls: active = growth percent below 10; inactive = the rest.
Answer with one of the outcomes given here: YES for active, NO for inactive

GET /call?item= Cc1ccc(-c2nc3nc(-c4ccccc4)nc(N4CCCNCC4)c3o2)cc1 returns the recorded outcome of this test.
YES

GET /call?item= NC1=CC(=O)c2cccnc2C1=O returns the recorded outcome of this test.
YES

GET /call?item= O=C1OCC2=C1C(c1cccc(C(F)(F)F)c1)c1cc3c(cc1N2CCO)CCC3 (stereo not given) returns the recorded outcome of this test.
NO

GET /call?item= COc1ccc(/C=C(\C#N)c2cc3ccccc3[nH]2)cc1 returns the recorded outcome of this test.
NO

GET /call?item= CCOC(=O)c1cnn(CC(O)CC)c1NC(=O)NCc1ccccc1C(F)(F)F (stereo not given) returns the recorded outcome of this test.
NO

GET /call?item= COc1cc(CO)cc2cc3ccccc3nc12 returns the recorded outcome of this test.
NO

GET /call?item= N#C/C(=C\c1ccc(Br)cc1)n1nnc2c(F)cccc21 returns the recorded outcome of this test.
NO

GET /call?item= C=C1C(=O)O[C@H]2[C@H]1CC/C(COC(=O)NCc1ccc(Cn3c(=O)sn(CCCI)c3=O)cc1)=C\CC[C@@]1(C)O[C@@H]21 returns the recorded outcome of this test.
YES

GET /call?item= Cn1cc(-c2csc(-c3c[nH]c4ccc(F)cc34)n2)c2cnccc21 returns the recorded outcome of this test.
YES

GET /call?item= COc1ccc(-c2cc3cnc4ccccc4c3oc2=O)cc1 returns the recorded outcome of this test.
NO

----------
Test system: LOX IMVI melanoma
PROTOCOL NOTES: NCI-60 one-dose screen, 48 h
SETUP CONDITIONS: 10 µM unless noted
Compounds without any hit were thinned out: in the full panel of roughly 83,000, 20% have a hit. Activity calls are given as the source filed them. How the source made its calls: active means growth percent below 10; inactive means the rest.
Answer with one of the outcomes given here: YES for active, NO for inactive

GET /call?item= O=S(=O)(Nc1ccc(F)cc1)c1ccc(-c2cnc(C3CC3)o2)cc1 returns the recorded outcome of this test.
NO

GET /call?item= Cc1ccc(NC(=O)N/C(N)=N/c2nc(=O)c3ccccc3s2)cc1 returns the recorded outcome of this test.
NO

GET /call?item= Nc1ncnc2c1C(c1ccc([N+](=O)[O-])cc1)c1sc3c(F)cccc3c1O2 (stereo not given) returns the recorded outcome of this test.
NO

GET /call?item= COc1ccc(-c2c[nH]c(C(=O)O)c2-c2cc(OC)c(OC)c(OC)c2)cc1 returns the recorded outcome of this test.
NO

GET /call?item= CCCNNC(=O)/C=C/c1ccc(CNCCc2c(C)[nH]c3ccccc23)cc1 returns the recorded outcome of this test.
YES

GET /call?item= CCN1C(=O)N(c2ccccc2)C2NC(=S)N(/N=C/C=C/c3ccccc3)C21 (stereo not given) returns the recorded outcome of this test.
NO

GET /call?item= CCOC(=O)c1nnn(Cc2cc(=O)oc3c2ccc2ccccc23)c1C returns the recorded outcome of this test.
NO

GET /call?item= O=C(N=Nc1c(O)[nH]c2ccccc12)Nc1ccccc1Cl returns the recorded outcome of this test.
NO

GET /call?item= CCOC(=O)c1ccc(Nc2ncnc3c2cnn3-c2cccc(F)c2)cc1 returns the recorded outcome of this test.
NO

GET /call?item= CCN(CC)CC(=O)Nc1ccc2ncnc(Nc3ccc(Oc4cccc(F)c4)c(Cl)c3)c2c1 returns the recorded outcome of this test.
YES
